The reported numbers originate from patent EP4775582A1.

# System: NCI-H441 cells
# MEASUREMENT_DESCRIPTION: 3D cell proliferation assay (CellTiter Glo-3D), NCI-H441
# Format: cell-based, human
# MEASUREMENT_CONTEXT: Homo sapiens, 120 h, NCI-H441 cells (KRAS G12V), 2% FBS, 5 days, read-out: H441 AP IC50
READOUT_KIND: IC50 (nM)
Numbers only, in nM.

COMPOUND	UOM	MEASURED_VALUE
CCn1c(-c2cc(C#CCN3CCS(=O)(=O)CC3)cnc2[C@H](C)OC)c2c3cc(ccc31)-c1csc(n1)C[C@H](NC(=O)[C@@H](NC)C1CCC1)C(=O)N1CCC[C@H](N1)C(=O)OCC(C)(C)C2 (atropisomer, axis not shown; (Ra))	nM	0.35

Then this compound:
Input: State the measured IC50 (NCI-H441 cells) of CO[C@@H](C)c1ncc(C#CCN2CCS(=O)(=O)CC2)cc1-c1c2c3cc(ccc3n1CCCO)-c1csc(n1)C[C@H](NC(=O)[C@H]1[C@@H]3COC[C@@H]31)C(=O)N1CCC[C@H](N1)C(=O)OCC(C)(C)C2 (atropisomer, axis not shown; (Ra))
Output: 1.77
